Data provenance: ChEMBL document CHEMBL1135580

# tgt: GABA-A receptor; alpha-5/beta-3/gamma-2 (Homo sapiens) (UniProt P18507+P28472+P31644)
# protocol: Percentage modulation of GABA EC20 against human GABA-A receptor alpha-5-beta-3-gamma-2 subunits expressed in Xenopus laevis oocytes; also: test concentration or dose not given here
# Assay type: cell-based
# measurement_setup: Oocyte
Entries and their Efficacy values follow.
Express your answer in %, writing the number without its unit.

{"columns": ["structure", "value_units", "numeric_result"],
 "data": [
  ["CSc1sc(-c2nccs2)c2c1C(=O)CC(C)(C)C2", "%", -24]
]}

Exercise: Please look up its Efficacy: CC1(C)CC(=O)c2c(SSc3nccs3)sc(-c3cc[nH]n3)c2C1
Key: -7

Exercise: Follow-up entry: CSc1sc(-c2ccncc2)c2c1C(=O)CC(C)(C)C2
Key: -20
